# target-under-test: Cytochrome P450 2D6 (Homo sapiens, UniProt P10635)
# Sequence (P10635 whole entry): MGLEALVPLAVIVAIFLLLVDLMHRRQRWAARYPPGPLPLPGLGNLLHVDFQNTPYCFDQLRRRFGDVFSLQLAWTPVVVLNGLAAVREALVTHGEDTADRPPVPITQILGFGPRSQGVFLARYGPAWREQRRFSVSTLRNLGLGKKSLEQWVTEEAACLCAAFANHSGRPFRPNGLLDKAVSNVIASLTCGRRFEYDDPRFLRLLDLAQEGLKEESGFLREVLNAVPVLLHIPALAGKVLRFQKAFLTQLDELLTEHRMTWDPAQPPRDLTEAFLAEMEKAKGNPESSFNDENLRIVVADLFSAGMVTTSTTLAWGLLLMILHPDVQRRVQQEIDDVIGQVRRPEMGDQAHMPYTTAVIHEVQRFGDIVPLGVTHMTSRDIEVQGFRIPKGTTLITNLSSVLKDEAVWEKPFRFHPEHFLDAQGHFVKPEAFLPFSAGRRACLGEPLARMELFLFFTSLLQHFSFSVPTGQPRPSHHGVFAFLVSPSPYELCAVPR
parameter-measured: IC50 (µM)

Example cases with answers are listed next.
Cc1cc2nc(N3CCC(Oc4ccc(F)cc4F)CC3)c(NC(C)C)nc2cn1	3.98
Cc1cc2nc(N3CCC(Oc4ccc(F)cc4F)CC3)c(NC3CC3)nc2cn1	6.31

(I) Cc1cc2nc(NC3CC3)c(N3CCC(Oc4ccc(F)cc4F)CC3)nc2cn1
(II) Fc1ccc(F)c(CN2CCN(c3nc4cnccc4nc3NC3CC3)CC2)c1
Which numeric IC50 is bigger, that of I or that of II ? Answer by stating the label of the chosen item.
I

* * *

# Species: Homo sapiens
# assay-remarks: Selectivity for human GPR6 over human GRP3 assessed as fold change
parameter-measured: fold change (FC)

Cc1cc2nc(N3CCC(Oc4ccc(F)cc4F)CC3)c(NC3CC3)nc2cn1	19
CC(C)Nc1nc2c(nc1N1CCC(Oc3ccc(F)cc3F)CC1)CCN(C)C2	21
Cc1cc2nc(N3CCC(Oc4ccc(F)cc4F)CC3)c(NC(C)C)nc2cn1	19

(A) Fc1ccc(CN2CCN(c3nc4cnccc4nc3NC3CC3)CC2)c(F)c1
(B) CC(C)Nc1nc2ccncc2nc1N1CCN(Cc2ccc(F)cc2F)CC1
Min fold change (FC)? A | B Mark your selection by writing its label.
B
(B: 9, A: 21)
